// data source = BindingDB's records for doi:10.1021/acs.biochem.5b01128

target: Dual specificity tyrosine-phosphorylation-regulated kinase 1A (Homo sapiens, UniProt Q13627)
property.name: IC50 (nM)

smi=Cc1nc2ccc3sc(NC(=O)c4ccc5ncsc5c4)nc3c2s1 numeric_value=260

A: CSc1nc2ccc3nc(NC(=O)c4ccc(S(=O)(=O)N5CCOCC5)cc4)sc3c2s1
B: CSc1nc2ccc3nc(NC(=O)c4ccco4)sc3c2s1
Problem: Of the two listed items, which has the higher IC50? First: A Second: B State the label of the item chosen.
Solution: B

----------
target: Dual specificity protein kinase CLK1 (Homo sapiens, UniProt P49759)
Sequence (P49759 whole entry): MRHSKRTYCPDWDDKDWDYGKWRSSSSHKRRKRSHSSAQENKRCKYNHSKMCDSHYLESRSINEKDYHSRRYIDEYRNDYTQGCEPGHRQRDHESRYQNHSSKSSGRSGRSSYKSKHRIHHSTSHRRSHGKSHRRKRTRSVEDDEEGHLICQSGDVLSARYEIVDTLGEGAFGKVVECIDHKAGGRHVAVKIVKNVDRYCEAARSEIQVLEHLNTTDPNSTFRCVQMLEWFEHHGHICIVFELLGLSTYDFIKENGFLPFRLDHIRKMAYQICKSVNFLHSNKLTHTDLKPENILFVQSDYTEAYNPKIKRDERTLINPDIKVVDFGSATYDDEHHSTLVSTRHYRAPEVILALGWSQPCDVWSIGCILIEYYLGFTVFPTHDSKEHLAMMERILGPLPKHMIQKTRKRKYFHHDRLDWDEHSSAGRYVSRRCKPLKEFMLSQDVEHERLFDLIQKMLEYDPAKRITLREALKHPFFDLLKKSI
measurement.protocol: Kinase Inhibition Assay
property.name: IC50 (nM)

I: Cc1nc2ccc3sc(NC(=O)c4ccc5ncsc5c4)nc3c2s1
II: CSc1nc2ccc3nc(NC(=O)c4ccc(S(=O)(=O)N5CCOCC5)cc4)sc3c2s1
Problem: Of I and II , which shows the smaller IC50 value? Field: selected label. Fill in the label of the entry you choose.
Solution: I
(I: 51 nM, II: 273 nM)
